Overview of recorded Internalization % TOP for various binders
Target: human GLP-1R (SNAP-GLP-1R expressed in HEK293 cells) (human) (UniProt P43220)
Sequence (P43220 24-463): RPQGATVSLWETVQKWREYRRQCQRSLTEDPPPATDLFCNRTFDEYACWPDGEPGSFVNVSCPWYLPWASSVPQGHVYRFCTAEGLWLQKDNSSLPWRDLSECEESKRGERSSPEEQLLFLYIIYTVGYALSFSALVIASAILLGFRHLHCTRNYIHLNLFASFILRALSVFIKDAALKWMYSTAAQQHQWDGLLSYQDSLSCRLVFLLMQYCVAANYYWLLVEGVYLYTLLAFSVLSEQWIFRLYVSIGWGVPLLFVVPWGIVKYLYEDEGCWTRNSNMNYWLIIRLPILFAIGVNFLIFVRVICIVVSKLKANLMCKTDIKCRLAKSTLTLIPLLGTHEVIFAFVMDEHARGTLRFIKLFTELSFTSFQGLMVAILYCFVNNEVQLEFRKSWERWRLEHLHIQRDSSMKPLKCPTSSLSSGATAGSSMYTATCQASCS
Test: cell-based or functional assay
// units = %; emit number, no label

Would you please look over these solved cases?
INSERT INTO results (binder, measurement_unit, measured_value) VALUES
  ('YXQGTFTSDXSQXLDKKAQXAFIEYLIEXGESSGAPPPSGE (synthetic construct; SITE 2: note = 2-Aminoisobutyric Acid; SITE 10: note = 3-(4-Pyridyl)-L-alanine; SITE 13: note = alpha-methyl-leucine; SITE 17: note = Lysine is chemically modified through conjugation of the epsilon-amino group of the Lysine side chain with (2-[2-(2-Amino-ethoxy)-ethoxy]-acetyl)) [Example 227]', '%', 59.4),
  ('YXQGTFTSDFSXXLDKKAQXAFIEYLLEGGPSSGAPPPGES (synthetic construct; SITE 2: note = 2-Aminoisobutyric Acid; SITE 12: note = L-ornithine; SITE 13: note = alpha-methyl-leucine; SITE 17: note = Lysine is chemically modified through conjugation of the epsilon-amino group of the Lysine side chain with (2-[2-(2-Amino-ethoxy)-ethoxy]-acetyl)2-(gamma-Glu)) [Example 118]', '%', 46.4);

Consider now this further binder.
Please look up its Internalization % TOP: YXQGTXTSDXSIXLDXKAQXXFIEXLIEGGPSSGEPPPETE (synthetic construct; SITE 2: note = 2-Aminoisobutyric Acid; SITE 6: note = alpha-methyl-2-fluoro-L-phenylalanine; SITE 10: note = 3-(4-Pyridyl)-L-alanine; SITE 13: note = alpha-methyl-leucine; SITE 16: note = L-ornithine; SITE 17: note = Lysine is chemically modified through conjugation of the epsil) [Example 686]
101
